Reference for the values: patent US9278071B2

Assay: Particle size of the granular carbohydrate compounds used
Assay type: physicochemical
Details: granular carbohydrate compound as used
Parameter: Particle Size D10 (μm)

Observe how each entry below is paired with its result.
OC[C@@H](O)[C@@H](O)CO	63
OC[C@@H](O)[C@@H](O)[C@H](O)[C@H](O)CO [Mannitol, D-(−)-mannitol]	24
OC[C@@H](O)[C@@H](O)[C@H](O)[C@@H](O)CO	75
OC[C@@H](O)[C@@H](O[C@H]1O[C@H](CO)[C@@H](O)[C@H](O)[C@H]1O)[C@H](O)[C@@H](O)CO	7
O.OC[C@H]1O[C@@H](O[C@H]2[C@H](O)[C@@H](O)C(O)O[C@@H]2CO)[C@H](O)[C@@H](O)[C@H]1O (stereo partly shown) [Lactose monohydrate, lactose monohydrate]	3

1. O=C[C@H](O)[C@@H](O)[C@H](O[C@@H]1O[C@H](CO)[C@@H](O)[C@H](O)[C@H]1O)[C@H](O)CO
2. O[C@H]1[C@H](O)[C@@H](O)[C@H](O)[C@@H](O)[C@H]1O
3. OC[C@@H](O)[C@H](O)[C@@H](O)CO
With regard to Particle Size D10, arrange the entries in ascending order, please. Response field: labels, in requested order.
1, 2, 3
